targetOfAssay: human GLP-1 receptor (human, UniProt P43220 24-463)
protocol: cell-based or functional assay
Starred links: 1 amine or outer side, 2 acyl side, 3 side chain; linkers in the order of their positions; H or OH if unused. Non-standard residues stand in square brackets, D forms with d. Groups on a side chain read outwards from the residue. No end group written: not given here. *: point of attachment. C18 diacid = O=C(O)CCCCCCCCCCCCCCCCC(=O)*; C16 diacid = O=C(O)CCCCCCCCCCCCCCC(=O)*; γGlu = O=C(O)[C@H](CCC(=O)[*:2])N[*:1]; εLys = N[C@@H](CCCCN[*:1])C(=O)[*:2]; AEEA = NCCOCCOCC(=O)O; Aib = CC(C)(N)C(=O)O
propertyMeasured: hGLP-1R, CRE Luc 1% HSA EC50 (pM)
Your answer is read as pM, so omit the unit and give the number.

Please review the entries below; each comes with its answer.
Reported hGLP-1R, CRE Luc 1% HSA EC50 (pM) for Y[Aib]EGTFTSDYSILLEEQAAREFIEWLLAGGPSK([AEEA-AEEA-γGlu-C18 diacid])GAPPPS-OH [Compound No. 45] : what is it?
1580

Reported hGLP-1R, CRE Luc 1% HSA EC50 (pM) for Y[Aib]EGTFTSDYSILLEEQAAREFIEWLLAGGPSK([εLys-εLys-γGlu-C16 diacid])GAPPPS-OH [Compound No. 46] : what is it?
111

Reported hGLP-1R, CRE Luc 1% HSA EC50 (pM) for Y[Aib]EGTFTSDYSILLEEQAAREFIEWLLAGGPSKGAPPPS-OH (not fully specified (residue 33)) [Compound No. 47] : what is it?
154

Moving on to the next binder.
Reported hGLP-1R, CRE Luc 1% HSA EC50 (pM) for Y[Aib]EGTFTSDYSILLEK([AEEA-AEEA-γGlu-C18 diacid])QAAREFINWLLAGGPSSGAPPPS-OH [Compound No. 35] : what is it?
413
